Provide the reported scaled lipid accumulation score of each item.
- System: primary human hepatic stellate cells (donor 1)
- Protocol Notes: scaled lipid accumulation score (0 = DMSO-like, 1 = nortriptyline-like); higher = stronger HSC inactivation (lipid re-accumulation), active = hit call of the paper
- Condition Set: library stock concentration: 10 mM; 48 h
Out of some 5,800 compounds screened, about 620 (11%) showed activity. The sample as a whole holds a higher share of actives than the screen did.

> print(dat)
                                   compound                           measured.target      result.value
1  CCOc1cc(C(=O)Nc2ccc(Cl)c(-c3nc4ccccc4[nH]3)c2)cc(OCC)c1OCC  primary human hepatic stellate cells (donor 1)  0.438 (inactive)
2  C(=C\c1ccccc1)/CN1CCN(C(c2ccccc2)c2ccccc2)CC1  primary human hepatic stellate cells (donor 1)  0.423 (inactive)

Answer for every listed entry: what is its scaled lipid accumulation score? The entries follow.
1. COc1ccc(N(C(=O)Oc2cc(C(=O)Nc3cccc(C(F)(F)F)c3)ccc2C)c2ccnc(Nc3ccc(N4CCN(C)CC4)cc3)n2)c(OC)c1
2. CCN(c1ccccc1)c1cc(=NC)n(C)c(C)n1
3. O=C(O)/C(=C\c1c(C(=O)O)[nH]c2cc(Cl)cc(Cl)c12)c1ccccc1
4. CCCCC(CC)CN1CN(CC(CC)CCCC)CC(C)(N)C1 (centres undefined)
5. CCOc1cc2ncc(C#N)c(Nc3ccc(F)c(Cl)c3)c2cc1NC(=O)/C=C/CN(C)C [Pelitinib (EKB-569)]

Output:
1. 0.396 (inactive)
2. ≤ 0 (inactive)
3. 0.017 (inactive)
4. 0.342 (inactive)
5. 0.498 (inactive)

Answer for every listed entry: what is its scaled lipid accumulation score? The entries follow.
1. O=C1[C@H](Cc2ccc(O)cc2)N2C(=O)CCN(C(=O)NCc3ccccc3)[C@H]2CN1Cc1cccc2ccccc12
2. CCCCC(CC)CN1CCC(n2cc(CNC)nn2)CC1 (centres undefined)
3. OCCOCCN1CCN(C(c2ccccc2)c2ccc(Cl)cc2)CC1 (centres undefined) [Hydroxyzine 2HCl]
4. O=c1cc(CN2CCOCC2)occ1OCCCCCSc1ccnc2cc(C(F)(F)F)ccc12
5. Cc1nc(Nc2ncc(C(=O)Nc3c(C)cccc3Cl)s2)cc(N2CCN(CCO)CC2)n1
6. CCOc1nc2cccc(C(=O)O)c2n1Cc1ccc(-c2ccccc2-c2noc(=O)[nH]2)cc1

Output:
1. 0.29 (inactive)
2. 0.988 (active)
3. 0.631 (inactive)
4. 0.475 (inactive)
5. 0.677 (inactive)
6. ≤ 0 (inactive)

Answer for every listed entry: what is its scaled lipid accumulation score? The entries follow.
1. CCOc1cc2ncc(C#N)c(Nc3ccc(OCc4ccccn4)c(Cl)c3)c2cc1NC(=O)/C=C/CN(C)C
2. CN1C(CCl)Nc2cc(Cl)c(S(N)(=O)=O)cc2S1(=O)=O (centres undefined) [Methyclothiazide]

Output:
1. 0.02 (inactive)
2. ≤ -0.001 (inactive)

Answer for every listed entry: what is its scaled lipid accumulation score? The entries follow.
1. O=C(Cc1ccccc1)Nc1nc2ccc(Cl)cc2c2nc(-c3ccco3)nn12
2. CN1C(CCl)Nc2cc(Cl)c(S(N)(=O)=O)cc2S1(=O)=O (centres undefined)
3. O=C(O)C1CSCN1 (centres undefined)
4. Cc1ccc(NC(=O)NCCSCc2ccc(CN(C)C)o2)cc1Cl

Output:
1: 0.596 (inactive); 2: 0.013 (inactive); 3: ≤ 0 (inactive); 4: 0.931 (active)

---

Provide the reported scaled lipid accumulation score of each item.
- System: primary human hepatic stellate cells (donor 1)
- Protocol Notes: scaled lipid accumulation score (0 = DMSO-like, 1 = nortriptyline-like); higher = stronger HSC inactivation (lipid re-accumulation), active = hit call of the paper
- Condition Set: library stock concentration: 10 mM; 48 h
Counter-ions that a name gives are not always drawn. About 620 (11%) of roughly 5,800 compounds showed activity. Many of the other results were omitted from the sample, so actives are more common in it than they were.

Molecule	Readout	Result Value
N=C(CC(O)COc1ccccc1-c1ccccc1)N1CCCCC1 (stereo not given)	scaled lipid accumulation score	0.781 (inactive)
CCN(CC)CCCC(C)Nc1c2ccc(Cl)cc2nc2ccc(OC)cc12 (stereo not given) [Quinacrine dihydrochloride]	scaled lipid accumulation score	0.536 (inactive)
C[C@H]1O[C@@H](O[C@H]2[C@@H](O)C[C@H](O[C@H]3[C@@H](O)C[C@H](O[C@H]4CC[C@@]5(C)[C@H](CC[C@@H]6[C@@H]5CC[C@]5(C)[C@@H](C7=CC(=O)OC7)CC[C@]65O)C4)O[C@@H]3C)O[C@@H]2C)C[C@H](O)[C@@H]1O	scaled lipid accumulation score	0.545 (inactive)
CCN(CC)CCCC(C)Nc1c2ccc(Cl)cc2nc2ccc(OC)cc12 (stereo not given) [Quinacrine hydrochloride]	scaled lipid accumulation score	0.586 (inactive)

Answer for every listed entry: what is its scaled lipid accumulation score? The entries follow.
1. CCN1CCN(Cc2ccc(Nc3ncc(F)c(-c4cc(F)c5nc(C)n(C(C)C)c5c4)n3)nc2)CC1
2. CC1(C)S[C@@H]2[C@H](NC(=O)[C@H](N)c3ccc(O)cc3)C(=O)N2[C@H]1C(=O)O [Amoxicillin Sodium]
3. CCN(CC)CCCC(C)Nc1c2ccc(Cl)cc2nc2ccc(OC)cc12 (stereo not given) [Quinacrine 2HCl]

Output:
["0.691 (inactive)", "≤ 0 (inactive)", "0.325 (inactive)"]

---

- Test system: primary human hepatic stellate cells (donor 1)
- Protocol Notes: scaled lipid accumulation score (0 = DMSO-like, 1 = nortriptyline-like); higher = stronger HSC inactivation (lipid re-accumulation), active = hit call of the paper
- Condition Set: 48 h
Where a name gives a salt, the structure may show the parent alone. Screen size: about 5,800 compounds; about 620 (11%) showed activity. Only a selection was taken, and actives are over-represented in it overall.
Provide the reported scaled lipid accumulation score of each item.

Here is how some molecules turned out for scaled lipid accumulation score.
Molecule	scaled lipid accumulation score
CC1O[C@H](O[C@]2(O[C@H]3CC[C@@]4(C)C(=CC[C@H]5[C@@H]6C[C@H]7[C@H]([C@H](C)[C@H]8CC[C@H](C)CN87)[C@@]6(C)CC[C@@H]54)C3)C[C@@H](O[C@@H]3OC(CO)[C@@H](O)[C@@H](O)C3O)[C@@H](O)C(CO)O2)C(O)[C@@H](O)[C@H]1O (stereo partly specified)	≤ 0 (inactive)
COc1ccc2c(c1OC)C(=O)O[C@@H]2[C@H]1c2c(cc3c(c2OC)OCO3)CCN1C	≤ 0 (inactive)
CCCC(C(=O)OCCN(CC)CC)(c1ccccc1)c1ccccc1 [Proadifen hydrochloride]	0.228 (inactive)
O=C1NCCN1c1ncc([N+](=O)[O-])s1	≤ 0 (inactive)
COc1ccc2cc1Oc1ccc(cc1)C[C@H]1c3cc(c(OC)cc3CCN1C)Oc1c(OC)c(OC)cc3c1[C@H](C2)N(C)CC3	0.685 (inactive)

Moving on to the next molecule.
Task: Report scaled lipid accumulation score, nothing else, for this molecule: COc1ccc(C(Cl)=C(c2ccc(OC)cc2)c2ccc(OC)cc2)cc1
Output: ≤ 0 (inactive)

---

- System: primary human hepatic stellate cells (donor 1)
- Protocol Notes: scaled lipid accumulation score (0 = DMSO-like, 1 = nortriptyline-like); higher = stronger HSC inactivation (lipid re-accumulation), active = hit call of the paper
- Condition Set: library stock concentration: 3.33 mM; 48 h
Among all 5,800 compounds or so, about 620 (11%) showed activity.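 Rule for the calls: active = score above a cut-off or among the top three wells of a plate; in these data no inactive exceeds 0.85.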 What follows is part of a selection rich in actives, with near analogues and random picks from the rest.
Select the correct class. Options are y = active, n = inactive and nothing else.

Field: example entries. Status: answers known.
Molecule	Measured Target	Answer Label
CN(C)C(=O)[C@H](O)[C@H](Cc1ccccc1)NC(=O)c1cc2cc(Cl)ccc2[nH]1	primary human hepatic stellate cells (donor 1)	n
Nc1c(CC(=O)O)cccc1C(=O)c1ccccc1 [Amfenac Sodium Monohydrate]	primary human hepatic stellate cells (donor 1)	n
COc1cc2ncnc(N3CCN(C(=O)Nc4ccc(Oc5ccccc5)cc4)CC3)c2cc1OC	primary human hepatic stellate cells (donor 1)	n
C[C@H]1O[C@@H](O[C@H]2[C@@H](O)C[C@H](O[C@H]3[C@@H](O)C[C@H](O[C@H]4CC[C@@]5(C)[C@H](CC[C@@H]6[C@@H]5C[C@@H](O)[C@]5(C)[C@@H](C7=CC(=O)OC7)CC[C@]65O)C4)O[C@@H]3C)O[C@@H]2C)C[C@H](O)[C@@H]1O	primary human hepatic stellate cells (donor 1)	y
CC(C)c1cc(-c2n[nH]c(=O)n2-c2ccc3c(ccn3C)c2)c(O)cc1O [Ganetespib (STA-9090)]	primary human hepatic stellate cells (donor 1)	n

Consider now this further molecule.
Task: Assay result, entry N#Cc1cc([N+](=O)[O-])c2sc(C(N)=O)[n+]([O-])c2c1 — outcome?
Output: n

---

- Test system: primary human hepatic stellate cells (donor 1)
- Protocol Notes: scaled lipid accumulation score (0 = DMSO-like, 1 = nortriptyline-like); higher = stronger HSC inactivation (lipid re-accumulation), active = hit call of the paper
- Condition Set: library stock concentration: 3.33 mM; 48 h
Where a name gives a salt, the structure may show the parent alone. The campaign covered roughly 5,800 compounds. About 620 (11%) showed activity. The list comes from a sample in which actives are over-represented; it also holds close analogues and randomly drawn compounds.
Provide the reported scaled lipid accumulation score of each item.

Here is how some compounds turned out for scaled lipid accumulation score.
> print(dat)
                                   compound                           measured.target      result.value
1            CCCSc1ccc2[nH]c(NC(=O)OC)nc2c1  primary human hepatic stellate cells (donor 1)    ≤ 0 (inactive)
2  CCCCOc1cc(C(=O)NCCN(CC)CC)c2ccccc2n1 [Dibucaine HCl]  primary human hepatic stellate cells (donor 1)  0.253 (inactive)
3            Cc1nc(-c2ccccc2)c(-c2ccncc2)o1  primary human hepatic stellate cells (donor 1)    ≤ 0 (inactive)
4  C[C@@H]1CC(=O)NN=C1c1ccc(NN=C(C#N)C#N)cc1  primary human hepatic stellate cells (donor 1)    ≤ 0 (inactive)

Moving on to the next compound.
Task: Report scaled lipid accumulation score, nothing else, for this compound: COc1cc(OC2CCN(C)CC2)ccc1Nc1ncc2c(n1)n(C1CCCC1)c(=O)n2C
Output: 0.441 (inactive)

Origin of the recorded values: the supplement of paper PMC9135407
